Values were extracted from a melting point compilation (Tetko et al.; mined from patent text by program, amines drawn as free bases though some values may be those of a salt).

Quantity Name: melting point

C=CCSc1cc(-c2ccc(C(F)(F)F)cc2)ccc1C#N; 89 to 90 °C
CCOC(=O)C1=C(C)NC(C)=C(C(=O)OCC)C1c1ccccc1/C=C/C(=O)OCC(C)C; 172 to 174 °C
CN(C)c1ccc2c(c1)CNC2=O; 122 to 124 °C
CCOC(=O)N1CCN(c2ccc(-n3cnn(C(CC)C(=O)c4ccc(Cl)cc4)c3=O)cn2)CC1 (stereo not given); 139 °C
O=c1c2ccc3[nH]cc(CCNS(=O)(=O)c4ccccc4)c3c2ccn1Cc1ccccc1; 205 to 206 °C
Cc1c(-c2ccc(F)cc2)c(-c2ccc(S(N)(=O)=O)cc2)c2n1CCC2; 120 °C
CC(C)[C@H]1c2ccc(F)cc2CC[C@]1(O)CC(=O)N(C)CCCc1nc2ccccc2[nH]1; 132 to 138 °C
COc1cccc2c1OC(CN1CCC(CNC(=O)c3cccnc3N)CC1)CO2 (stereo not given); 57 to 60 °C
Cc1c(Cl)nnc(Cl)c1C(C)(C)CCl; 56 to 58 °C
COC(=O)C=C1Oc2ccccc2Oc2ccccc21; 81 to 83 °C

====

melting point listing for selected molecules.
Quantity Name: melting point

CS(=O)(=O)c1ccc(-c2ccccc2N)cc1; 164 to 165 °C
O=[N+]([O-])c1cnc2ccc(SC(F)F)cc2c1-c1ccccc1; 101 to 103 °C
CCCCCCCCCCCCCCCCCCOCCOCCO; 45 to 46 °C
COc1ccc2ccc(N3C(=O)c4ccccc4C3NCCCN(C)C)nc2n1 (stereo not given); 128 °C
CCNC(=O)C1(C/C=C/c2ccccc2)c2ccccc2-c2ccccc21; 144 °C
CCOc1c(Br)ccc(C(=O)CC(=O)C2CC2)c1N(C)S(C)(=O)=O; 120 to 122 °C
CCCCCCNC(=O)OC1CCN(C(=O)Oc2ccc(Oc3ccc(C)cc3)cc2)CC1; 84 to 85 °C
CCCCCCCC(=O)Nc1ccc(OCC(O)CNC(C)C)c(C#N)c1 (stereo not given); 116 to 118 °C
O=C1NC(=C(Br)c2ccccc2)C(=O)C1=NO; 158 °C
CC(C)(NCC(O)Cn1ccnc1)c1ccc(Cl)cc1 (stereo not given); 89 to 91 °C
NC(=O)C(CCc1ccccn1)(c1ccccc1)c1ccccc1; 145 to 146 °C
Cc1ccc(NC(=O)c2cc(Cl)ccc2NCC2CCN(C3CCCC3)CC2)nc1; 150 to 152 °C
CC(C)(C)OC(=O)N1CCc2c(n(CCOc3ccccc3)c3c(Cl)ccc(Cl)c23)CC1; 132 to 133 °C
Nc1nccc(-c2c[nH]c3nccc(OC4CCCCC4)c23)n1; > 210 °C
O=C1[C@H]2CCC[C@H]2Nc2ccccc2N1Cc1cccc2ccccc12 (relative stereo); 126 to 128 °C
COc1ccc2c(=O)c3[nH]cc(C(=O)O)c(=O)c3oc2c1; 318 to 319 °C
Cc1cccc(C(Nc2ccccc2)P(=O)(Oc2ccccc2)Oc2ccccc2)n1 (stereo not given); 110 to 112 °C
CNS(=O)(=O)CCCn1cnc2c(N)nc3ccccc3c21; 155 to 157 °C
Nc1nc2c(Cc3ccccn3)c[nH]c2c(=O)[nH]1; 280 to 282 °C
CCCCc1nc(C(F)(F)F)c(C(=O)OCC)n1O; 77.5 to 80.5 °C
COc1cccc(C=CC(=O)C(=O)O)c1OC; 136 to 138 °C
CCNCCC1CCc2cc(OCc3ccc(-c4ccccc4)cc3)ccc2C1 (stereo not given); 83 to 85 °C
CCn1c2cc(C(F)(F)F)ccc2c2oc(C(=O)Cl)cc21; 124 to 126 °C
O=C(N[C@@H](Cc1ccccc1)C(=O)NCCCNC(=O)[C@H](Cc1ccccc1)NC(=O)OCc1ccccc1)OCc1ccccc1; 226 to 227 °C
O=C(O)c1cc2cc(OCCc3ccccc3)ccc2[nH]1; 184 to 187 °C
CCOC(=O)c1cc(C(=O)OC)c(CCN2C(=O)c3ccccc3C2=O)o1; 122 to 123 °C
CC(C)(C)OC(=O)NC(CC(=O)OCc1ccccc1)C(=O)C(C#N)=P(c1ccccc1)(c1ccccc1)c1ccccc1 (stereo not given); 42 to 44 °C
COc1cc2c(Nc3ccc(Sc4ccccn4)c(Cl)c3)c(C#N)cnc2cc1N1CCC(N2CCCC2)CC1; 203 to 205 °C
CONC(=O)C(C)c1ccc2cc(OCc3ccc4ccccc4n3)ccc2c1 (stereo not given); 162 to 164 °C
CC(C)(CO)c1ccc(C(=O)Nc2cn3cc(C(F)(F)F)ccc3n2)cc1; 227 to 229 °C
CCCn1cc(CO)c(=O)c2ccccc21; 88 to 91 °C
C=CCC1(c2ccc(Br)cc2)C2CCC(C(=O)C2)C1Nc1ccc(OC)cc1 (stereo not given); 68 to 69 °C
CC1NC(=O)NN=C1c1ccc(OCC(=O)NCCN2CCN(S(C)(=O)=O)CC2)c(Cl)c1 (stereo not given); 236 to 238 °C
O=C1C2CCCCN2C(=O)N1c1ccc([N+](=O)[O-])c2ccccc12 (stereo not given); 190 to 192 °C
ON=Cc1ccc(OCc2coc(-c3ccccc3)n2)cc1; 184 to 186 °C
CCC(=O)OCC=C(C)CCC=C(C)CCC=C(C)CCC=C(C)CCC=C(C)CCC=C(C)CCC=C(C)CCC=C(C)CCC=C(C)C; 33 to 35 °C
COC(=O)C1=C(C)NN=C(c2ccccc2)C1c1ccccc1 (stereo not given); 158 °C
CCCNC(=O)C1=CCC2C3CCc4cc(O)ccc4C3CCC12C (stereo not given); 168 to 169 °C
O=S(=O)(NCC1CCCO1)c1ccc(Nc2nc(OCC3CCCCC3)c3nc[nH]c3n2)cc1 (stereo not given); 134 to 136 °C
CCCn1c(=O)c2[nH]c([C@H](C)c3ccccc3)nc2n(CCC)c1=O; 136 to 137 °C

====

Quantity Name: melting point

COCCOC(=O)c1ccccc1Nc1nc(Nc2cc3c(cc2OC)CCN(CCO)CC3)ncc1Cl; 125 to 131 °C
O=C(O)c1csnc1-c1cc(C(F)(F)F)cc(C(F)(F)F)c1; 151 to 154 °C
CCCCc1nc2ccn(Cc3ccccc3)c(=O)c2n1Cc1ccc(-c2ccccc2-c2nnn[nH]2)cc1; 130 °C
COc1cccc(-c2cc(=O)c3ccccc3[nH]2)c1SCc1ccccc1; > 250 °C
Cc1cccc(CNc2nc(NC[C@@H](C)O)nc3c2ncn3C(C)C)c1O; 145 to 147 °C
CC(=O)OC1CCC2(CO)C(CCC3C4=CCC(OC(=O)C(C)(C)C)C4(C)CCC32)C1 (centres undefined); 133 to 134 °C
Cc1ccc(C)c(OC(=O)c2c3ccccc3nc3ccccc23)c1; 187 to 190 °C
CCOC(=O)c1cnc(Nc2cccc(C(F)(F)F)c2)[nH]c1=O; 229 to 230 °C
CC1(C)OC(c2ccc(S(N)(=O)=O)cc2F)=C(c2ccccc2)C1=O; 79 to 81 °C
CCCN(CCC)S(=O)(=O)c1cc(-c2csc(=Nc3ccccc3C)n2C)ccc1Cl; 114 to 116 °C
CC(C)(O)CNC(=O)c1ccc(-c2ccc(C(CC3CCOCC3)c3ccc(S(=O)(=O)C4CC4)cc3)[nH]2)nc1 (centres undefined); 126 to 128 °C
COc1c(N2CC(C)[C@@](N)(CF)C2)c(F)cc2c(=O)c(C(=O)O)cn([C@@H]3C[C@@H]3F)c12 (some centres undefined); 167 to 169 °C
O=C(c1cc(Br)c(O)c(Br)c1)c1c(Cc2ccccc2)oc2ccccc12; 156 to 158 °C
Cc1ccc(CC2=NOS(=O)N2)cc1C (centres undefined); 127 to 130 °C
O=C(O)CCC(=O)N[C@@H](Cc1ccc(-c2ccccc2)cc1)C(=O)NCCCCNc1ncccn1; 200 to 205 °C
O=C(Nc1ccccc1O)c1nnn[nH]1; 220 to 223 °C
CCOC(=O)C1c2c([nH]c3ccccc23)C2=C(CCC2)C1C#N (centres undefined); 192 to 195 °C
CCOc1cc(OCCCCc2cc(-c3ccc(C(F)(F)F)cc3)no2)ccc1CCC(=O)O; 105 to 106 °C
CCOC(=O)c1c(Nc2c(C)cccc2Cl)n[nH]c1C; 158 to 159 °C

====

Quantity Name: melting point

CCOC(=O)C(=O)Nc1cccc([N+](=O)[O-])c1C#N; 111 to 113 °C
O=C1c2ccccc2C(O)N1CCN1CCC(Cc2c[nH]c3ccc(F)cc23)CC1 (racemic); 183 °C
COc1cccc(Cc2nc3c(N)ncnc3[nH]2)c1; 163 to 165 °C
CC1=NC(NC(=O)Nc2cccc(C)c2)C(=O)N(CC(=O)C23CC4CC(CC(C4)C2)C3)c2c(C)cccc21 (stereo not given); 182 to 184 °C
COc1cccc(CNC(=O)c2nc3onc(C)c3c(=O)[nH]2)c1; 236 to 237 °C
